Tested on: Staph. aureus (Meth-Res) A-15097
Assay: MIC, tube dilution, Staphylococcus aureus A15097 (Meth-Res)
Type: cell-based
Details: Staphylococcus aureus, Staph. aureus A15097 (Meth-Res); overnight 37° C.; read-out: Minimum Inhibitory Concentration (M.I.C.)
So I've got a bunch of molecules here, and I need their MIC values.
Numbers only, in µg/mL.

For each of the molecules below, note its MIC.
1. CC1=C(C(=O)O)N2C(=O)[C@@H]([C@@H](C)O)[C@H]2S1 (relative stereo)
2. CC1=C(C(=O)O)N2C(=O)[C@H]([C@H]3COC(C)(C)O3)[C@H]2S1 (relative stereo)

1. 16
2. 63

The measured values listed here are drawn from patent US4272437A.
